Target: E. coli Enopyruvyl-UPD-N-acetylglucosamine reductase, Mur B (Escherichia coli)
Sequence (P08373 whole entry): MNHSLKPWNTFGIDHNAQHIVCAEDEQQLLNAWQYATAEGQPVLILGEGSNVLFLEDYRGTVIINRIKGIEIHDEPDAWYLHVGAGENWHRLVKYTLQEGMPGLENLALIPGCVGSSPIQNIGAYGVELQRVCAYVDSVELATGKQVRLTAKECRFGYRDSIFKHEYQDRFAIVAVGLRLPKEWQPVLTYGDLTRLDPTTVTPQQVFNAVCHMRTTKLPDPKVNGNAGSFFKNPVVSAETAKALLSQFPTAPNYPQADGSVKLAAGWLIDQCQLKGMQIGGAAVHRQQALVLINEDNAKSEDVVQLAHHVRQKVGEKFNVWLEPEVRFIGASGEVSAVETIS
Test: biochemical
Conditions: (E) E. coli enzyme; read-out: MurB IC50 (converted)
Listing of recorded IC50 by entry.

# QUERY_SMILES, QUALIFIER_SYMBOL, IC50 / µM
data = [
    ("O=C1O/C(=C\\c2ccccc2-c2cccc(Cl)c2)C(O)=C1c1cccc(Cl)c1", "=", 9.77),
    ("CCOc1ccc(-c2ccc(C3=C(O)/C(=C/c4cccc(C(F)(F)F)c4Cl)OC3=O)cc2)cc1", "=", 14.4),
    ("CCOc1ccc(-c2ccc(C3=C(O)/C(=C/c4ccc(Cl)c(C(F)(F)F)c4)OC3=O)cc2)cc1", "=", 24.6),
    ("COc1cc(/C=C2\\OC(=O)C(c3cc(Cl)cc(Cl)c3)=C2O)ccc1-c1ccccc1Cl", "=", 10.6),
    ("O=C1O/C(=C\\c2ccc3ccccc3c2)C(O)=C1c1ccc(-c2ccccc2)cc1", "=", 15.4),
    ("COc1ccc(C2=C(O)/C(=C/c3ccc(-c4ccccc4)cc3)OC2=O)cc1", "=", 43.2),
    ("COc1cc(/C=C2\\OC(=O)C(c3cccc(Cl)c3)=C2O)ccc1-c1ccccc1C(F)(F)F", "=", 12.7),
    ("COc1ccccc1-c1ccc(/C=C2\\OC(=O)C(c3cc(Cl)cc(Cl)c3)=C2O)cc1C", "=", 8.82),
    ("COC(=O)c1ccc(C2=C(O)/C(=C/c3cccc4ccccc34)OC2=O)cc1", "=", 59.1),
    ("O=C1O/C(=C\\c2ccc(-c3ccccc3C(F)(F)F)cc2)C(O)=C1c1ccccc1C(F)(F)F", ">", 52.5),
    ("O=C1O/C(=C\\c2cccc3ccccc23)C(O)=C1c1ccc(C(F)(F)F)cc1", "=", 26.2),
    ("COc1cc(/C=C2\\OC(=O)C(c3cc(Cl)cc(Cl)c3)=C2O)ccc1-c1ccccc1C", "=", 4.41),
    ("Cc1ccc(/C=C2\\OC(=O)C(c3ccc4ccccc4c3)=C2O)s1", ">", 74.8),
    ("COc1ccc(C2=C(O)/C(=C/c3cccc4ccccc34)OC2=O)cc1", ">", 72.6),
    ("Cc1ccccc1C1=C(O)/C(=C/c2ccc(-c3ccccc3C)cc2)OC1=O", ">", 67.9),
    ("O=C1O/C(=C\\c2ccccc2-c2ccc(Cl)cc2)C(O)=C1c1ccc(Cl)cc1", "=", 51.3),
    ("CN(C)c1ccc(/C=C2\\OC(=O)C(c3cc(Cl)cc(Cl)c3)=C2O)c2ccccc12", "=", 14.1),
    ("COc1cc(/C=C2\\OC(=O)C(c3cccc(Cl)c3)=C2O)ccc1-c1ccccc1C", "=", 14.3),
    ("O=C1O/C(=C\\c2ccc3ccccc3c2)C(O)=C1c1ccc2ccccc2c1", ">", 68.6),
    ("O=C1O/C(=C\\c2ccc(Cl)cc2)C(O)=C1c1cccc2ccccc12", ">", 71.7),
    ("O=C1O/C(=C\\c2cccc(-c3ccc(Cl)c(Cl)c3)c2)C(O)=C1c1ccc(Cl)c(Cl)c1", "=", 6.27),
    ("COc1ccccc1-c1ccc(/C=C2\\OC(=O)C(c3ccc(Cl)c(Cl)c3)=C2O)cc1OC", "=", 6.39),
    ("O=C1O/C(=C\\C2CCCCC2)C(O)=C1c1ccc2ccccc2c1", ">", 78),
]
